- System name: DNA polymerase β (Rattus norvegicus)
- Protocol text: DNA polymerase assay, pol. β
- Type: biochemical
Value kind: pIC50
// field semantics: pIC50 = negative decimal log of concentration (mol/L)

Worked examples, 2 compounds total:
Compound: CCCCCCCCCCCCCCCC(=O)O [Palmitic acid (16:0), Palmitic acid, reference compound]
System name: DNA polymerase β (Rattus norvegicus)
Value kind: pIC50
Data value: 3.54
//
Compound: CCCCCCCCCCCCCCCCCC(=O)O [Stearic acid (18:0), Stearic acid, reference compound]
System name: DNA polymerase β (Rattus norvegicus)
Value kind: pIC50
Data value: 3.89

Quick one: pIC50 of CCCCCCCCCCCCCC(=O)O [Myristic acid (14:0), Myristic acid, reference compound] ?
3.36
